Just for reference, PubChem BioAssay is where these values come from.

Target: Calcium-dependent protein kinase 1 (Plasmodium falciparum (isolate 3D7)) (UniProt P62344)
Sequence (P62344 whole entry, looked up): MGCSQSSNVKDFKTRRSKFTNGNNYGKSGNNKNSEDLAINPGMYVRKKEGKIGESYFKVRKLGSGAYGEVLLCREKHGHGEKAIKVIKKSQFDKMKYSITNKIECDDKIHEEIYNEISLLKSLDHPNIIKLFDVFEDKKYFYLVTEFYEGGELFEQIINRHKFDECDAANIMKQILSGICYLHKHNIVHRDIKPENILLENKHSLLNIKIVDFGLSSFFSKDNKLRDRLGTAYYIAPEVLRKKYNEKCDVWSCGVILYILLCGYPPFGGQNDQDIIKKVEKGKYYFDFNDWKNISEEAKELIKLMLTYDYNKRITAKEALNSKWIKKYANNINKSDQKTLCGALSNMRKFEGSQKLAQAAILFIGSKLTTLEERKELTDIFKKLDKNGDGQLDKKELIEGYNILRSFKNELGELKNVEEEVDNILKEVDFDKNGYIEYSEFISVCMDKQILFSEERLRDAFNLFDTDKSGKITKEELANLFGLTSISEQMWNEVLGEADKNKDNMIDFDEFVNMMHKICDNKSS
Test: PfCDPK1 kinase inhibitors, biochemical, TCAMS library (AID 1159585);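 further: inhibitors leave more ATP so luminescence rises with inhibition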
Settings: recombinant PfCDPK1, Kinase-Glo ATP depletion luminescence
Entries with a potency or affinity are not part of this list. Activity calls are given as the source filed them. Cut-off not given; nearly all actives show IC50 up to about 0.98 µM.
PROPERTY_NAME: outcome

In the examples that follow, each entry is paired with its recorded outcome.
1) COc1cccc(-c2ccc3ccnc(N)c3c2)c1; inactive
2) COc1cc(Cc2cnc(N)nc2N)cc(OC)c1OC; inactive
3) CCc1ccc(OCc2ccccc2C(=O)Nc2ccc3nc(C)cc(N)c3c2)cc1; inactive
4) CCOc1cc(/C=N/Nc2nc(C)cc(-n3nc(C)cc3C)n2)ccc1O; inactive
5) CC(=O)N1N=C(c2ccc(Cl)cc2)Sc2c1nc(C1CCCCC1)n2C(C)=O; inactive

Request: What value of outcome has been recorded for this entry: CC(C)(C)c1ccc(CN2CCC(NC(=O)c3ccc(-c4ccccc4Cl)s3)CC2)cc1
Response: inactive
